# Test system: Mycobacterium tuberculosis H37Rv
# Experiment Notes: Potency index, ratio of streptomycin MIC to test compound MIC for Inhibition of MmA1-mediated antitubercular activity against Mycobacterium tuberculosis H37Rv incubated for 5 days by MABA assay
# Condition Label: time 5.0 day
Metric: Ratio

Recorded results for 4 compounds are shown here.
>>> result("CN1CCN(CC(=O)Nc2cccc(C(=O)O)c2)CC1")
"> 2"
>>> result("O=C(CN1CCN(c2ccccc2)CC1)Nc1cccc(C(=O)O)c1")
"> 2"
>>> result("O=C(CN1CCCCC1)Nc1cccc(C(=O)O)c1")
"> 2"
>>> result("O=C(CN1CCCC1)Nc1cccc(C(=O)O)c1")
"> 2"

Data request: Observed Ratio on Mycobacterium tuberculosis H37Rv for `O=C(CNc1ccc(F)cc1F)Nc1cccc(C(=O)O)c1` , please.
Data returned: > 2
